- assay.protocol: Rat brain disposition after oral gavage
- Format: in vivo, male Sprague-Dawley rats
- test.context: male, Sprague-Dawley, brain, oral 10 mg/kg, 1 h, mean ± stdev, n=3

compound: COc1ncccc1-n1nc2c(c1C)Nc1ncc3c(Cl)nn(c3n1)CCCO2 [Example 1]
Kp uu at 1 h: 0.83

* * *

- assay.protocol: Fraction unbound in rat plasma and brain homogenate by equilibrium dialysis
- Assay type: in vitro ADME, male Sprague-Dawley rat
- test.context: rat plasma; 1 μM; equilibrium dialysis 5 h at 37° C.

smiles.str: Cc1ccc(-n2nc3c(c2C)Nc2ncc4c(Cl)nn(c4n2)CCCO3)c(C)n1
fuplasma (% free): 10.2

smiles.str: Cc1c2c(nn1-c1cccnc1C(C)(F)F)OCCCn1nc(Cl)c3cnc(nc31)N2
fuplasma (% free): 14.6

smiles.str: Cc1ncc(F)cc1-n1nc2c(c1C)Nc1ncc3c(Cl)nn(c3n1)CCCO2
fuplasma (% free): 22.7

smiles.str: Cc1nc(C)c(-n2nc3c(c2C)Nc2ncc4c(Cl)nn(c4n2)CCCO3)cc1F
fuplasma (% free): 11.0

smiles.str: COc1nccc(C)c1-n1nc2c(c1C)Nc1ncc3c(Cl)nn(c3n1)CCCO2
fuplasma (% free): 21.0

smiles.str: Cc1cnc(C)c(-n2nc3c(c2C)Nc2ncc4c(Cl)nn(c4n2)CCCO3)c1
fuplasma (% free): 11.7

smiles.str: COc1ncc(C)cc1-n1nc2c(c1C)Nc1ncc3c(Cl)nn(c3n1)CCCO2
fuplasma (% free): 6.7

smiles.str: COc1nc(C)ccc1-n1nc2c(c1C)Nc1ncc3c(Cl)nn(c3n1)CCCO2
fuplasma (% free): 7.4

smiles.str: CCc1c2c(nn1-c1cccnc1OC)OCCCn1nc(Cl)c3cnc(nc31)N2
fuplasma (% free): 12.3

smiles.str: Cc1c2c(nn1-c1cccnc1OCF)OCCCn1nc(Cl)c3cnc(nc31)N2
fuplasma (% free): 12.8

smiles.str: Cc1c2c(nn1-c1cccnc1OC1CC1)OCCCn1nc(Cl)c3cnc(nc31)N2
fuplasma (% free): 13.9

smiles.str: COc1ncc(F)cc1-n1nc2c(c1C)Nc1ncc3c(Cl)nn(c3n1)CCCO2
fuplasma (% free): 8.9

smiles.str: CCOc1ncccc1-n1nc2c(c1C)Nc1ncc3c(Cl)nn(c3n1)CCCO2
fuplasma (% free): 9.7

* * *

- assay.protocol: Rat brain disposition after oral gavage
- Format: in vivo, male Sprague-Dawley rats
- test.context: male, Sprague-Dawley, brain, oral 10 mg/kg, 1 h, mean ± stdev, n=3
test.readout: Kp at 1 h

smiles.str: COc1ncccc1-n1nc2c(c1C)Nc1ncc3c(Cl)nn(c3n1)CCCO2
observed: 2.6

* * *

- assay.protocol: Rat brain disposition after oral gavage
- Type: in vivo, male Sprague-Dawley rats
- test.context: male, Sprague-Dawley, brain, oral 5 mg/kg, 1 h, mean ± stdev, n=3

compound: Cc1ncc(F)cc1-n1nc2c(c1C)Nc1ncc3c(Cl)nn(c3n1)CCCO2 [Example 10]
Kp at 1 h: 2.2

compound: COc1nc(C)ncc1-n1nc2c(c1C)Nc1ncc3c(Cl)nn(c3n1)CCCO2 [Example 22]
Kp at 1 h: 2.5

compound: CCc1c2c(nn1-c1cccnc1C)OCCCn1nc(Cl)c3cnc(nc31)N2 [Example 8]
Kp at 1 h: 0.9

compound: Cc1c2c(nn1-c1cccnc1OC1CC1)OCCCn1nc(Cl)c3cnc(nc31)N2 [Example 16]
Kp at 1 h: 1.3

compound: CCc1c2c(nn1-c1cccnc1OC)OCCCn1nc(Cl)c3cnc(nc31)N2 [Example 5]
Kp at 1 h: 1.9

compound: Cc1nc(C)c(-n2nc3c(c2C)Nc2ncc4c(Cl)nn(c4n2)CCCO3)cc1F [Example 15]
Kp at 1 h: 1.8

compound: COc1nc(C)ccc1-n1nc2c(c1C)Nc1ncc3c(Cl)nn(c3n1)CCCO2 [Example 13]
Kp at 1 h: 2.5

compound: Cc1c2c(nn1-c1cccnc1OC(F)F)OCCCn1nc(Cl)c3cnc(nc31)N2 [Example 19]
Kp at 1 h: 2.8

compound: Cc1c2c(nn1-c1cccnc1C(C)(F)F)OCCCn1nc(Cl)c3cnc(nc31)N2 [Example 14]
Kp at 1 h: 1.2

compound: COc1ncc(C)cc1-n1nc2c(c1C)Nc1ncc3c(Cl)nn(c3n1)CCCO2 [Example 12]
Kp at 1 h: 1.9

compound: Cc1ccc(-n2nc3c(c2C)Nc2ncc4c(Cl)nn(c4n2)CCCO3)c(C)n1 [Example 9]
Kp at 1 h: 1.4

compound: Cc1cnc(C)c(-n2nc3c(c2C)Nc2ncc4c(Cl)nn(c4n2)CCCO3)c1 [Example 11]
Kp at 1 h: 1.1

compound: COc1nccc(C)c1-n1nc2c(c1C)Nc1ncc3c(Cl)nn(c3n1)CCCO2 [Example 7]
Kp at 1 h: 1.9

compound: Cc1c2c(nn1-c1cccnc1OCF)OCCCn1nc(Cl)c3cnc(nc31)N2 [Example 18]
Kp at 1 h: 2.8

compound: COc1ncc(F)cc1-n1nc2c(c1C)Nc1ncc3c(Cl)nn(c3n1)CCCO2 [Example 6]
Kp at 1 h: 3

* * *

- assay.protocol: Rat brain disposition after oral gavage
- Assay type: in vivo, male Sprague-Dawley rats
- test.context: male, Sprague-Dawley, brain, oral 5 mg/kg, 0.5 h, mean ± stdev, n=3
test.readout: Kp at 0.5 h

compound: Cc1ncccc1-n1nc2c(c1C)Nc1ncc3c(Cl)nn(c3n1)CCCO2 [Example 3]
observed: 1.1

* * *

- assay.protocol: Rat brain disposition after oral gavage
- Type: in vivo, male Sprague-Dawley rats
- test.context: male, Sprague-Dawley, brain, oral 5 mg/kg, 1 h, mean ± stdev, n=3, read-out: Total brain concentration
test.readout: log10 concentration at 1 h (log10 of the value in ng/g)

smiles.str: COc1nccc(C)c1-n1nc2c(c1C)Nc1ncc3c(Cl)nn(c3n1)CCCO2
observed: 1.00
--
smiles.str: COc1nc(C)ncc1-n1nc2c(c1C)Nc1ncc3c(Cl)nn(c3n1)CCCO2
observed: 2.33
--
smiles.str: Cc1cnc(C)c(-n2nc3c(c2C)Nc2ncc4c(Cl)nn(c4n2)CCCO3)c1
observed: 2.81
--
smiles.str: Cc1c2c(nn1-c1cccnc1OC(F)F)OCCCn1nc(Cl)c3cnc(nc31)N2
observed: 1.68
--
smiles.str: COc1nc(C)ccc1-n1nc2c(c1C)Nc1ncc3c(Cl)nn(c3n1)CCCO2
observed: 2.70
--
smiles.str: COc1ncc(C)cc1-n1nc2c(c1C)Nc1ncc3c(Cl)nn(c3n1)CCCO2
observed: 2.16
--
smiles.str: Cc1c2c(nn1-c1cccnc1OC1CC1)OCCCn1nc(Cl)c3cnc(nc31)N2
observed: 2.15
--
smiles.str: Cc1c2c(nn1-c1cccnc1OCF)OCCCn1nc(Cl)c3cnc(nc31)N2
observed: 2.54
--
smiles.str: COc1ncc(F)cc1-n1nc2c(c1C)Nc1ncc3c(Cl)nn(c3n1)CCCO2
observed: 2.31
--
smiles.str: Cc1c2c(nn1-c1cccnc1C(C)(F)F)OCCCn1nc(Cl)c3cnc(nc31)N2
observed: 2.54
--
smiles.str: CCc1c2c(nn1-c1cccnc1OC)OCCCn1nc(Cl)c3cnc(nc31)N2
observed: 0.85
--
smiles.str: Cc1nc(C)c(-n2nc3c(c2C)Nc2ncc4c(Cl)nn(c4n2)CCCO3)cc1F
observed: 2.40
--
smiles.str: Cc1ncc(F)cc1-n1nc2c(c1C)Nc1ncc3c(Cl)nn(c3n1)CCCO2
observed: 2.72
--
smiles.str: CCc1c2c(nn1-c1cccnc1C)OCCCn1nc(Cl)c3cnc(nc31)N2
observed: 2.45
--
smiles.str: Cc1ccc(-n2nc3c(c2C)Nc2ncc4c(Cl)nn(c4n2)CCCO3)c(C)n1
observed: 2.96

* * *

Overview of recorded Kp uu at 1 h for various compounds
- assay.protocol: Rat brain disposition after oral gavage
- Type: in vivo, male Sprague-Dawley rats
- test.context: male, Sprague-Dawley, brain, oral 5 mg/kg, 1 h, mean ± stdev, n=3

smiles.str: Cc1c2c(nn1-c1cccnc1OCF)OCCCn1nc(Cl)c3cnc(nc31)N2
Kp uu at 1 h: 1.04
//
smiles.str: COc1ncc(C)cc1-n1nc2c(c1C)Nc1ncc3c(Cl)nn(c3n1)CCCO2
Kp uu at 1 h: 0.85
//
smiles.str: CCc1c2c(nn1-c1cccnc1OC)OCCCn1nc(Cl)c3cnc(nc31)N2
Kp uu at 1 h: 0.8
